test: Dissociation constant, pKa of compound by capillary electrophoresis; type: physicochemical
ENDPOINT: pKa
Reply with the value as a number alone.

Examples with answers:
query: Any idea what pKa was measured for CC#C[C@@]1(c2cc(NC(=O)c3cnc(OCF)cn3)ccc2F)CCOC(N)=N1 ?
result: 8.4

query: Any idea what pKa was measured for CC#C[C@]1(c2cc(NC(=O)c3cnc(OCF)cn3)ccc2F)N=C(N)OCC12CC(F)(F)C2 ?
result: 7.5

query: Any idea what pKa was measured for CC#C[C@@]1(c2cc(NC(=O)c3ccc(C#N)cn3)ccc2F)CCOC(N)=N1 ?
result: 8.3

***
query: Any idea what pKa was measured for CC#C[C@]1(c2cc(NC(=O)c3cnc(OCF)cn3)ccc2F)N=C(N)OC[C@@H]1F ?
result: 6.5
